- procedure.summary: Separate tolerability study of Temodar
- Parameters: species or system mice
- run.conditions: mouse, in vivo, po, q.d.×5; read-out: maximally tolerated dose (MTD)
quantity.measured: MTD at 5 days (mg/kg)
# value in mg/kg; strip the unit string

Prompt: Would you kindly share the measured MTD at 5 days for Cn1nnc2c(C(N)=O)ncn2c1=O [Temodar ®, reference compound] ?
Response: 42

---

- procedure.summary: in vivo
- run.conditions: male, mouse, in vivo, po
quantity.measured: MTD at 5 days (mg/kg)
# value in mg/kg; strip the unit string

Prompt: Would you kindly share the measured MTD at 5 days for O=c1[nH]cc(F)c(=O)[nH]1 ?
Response: 30

The reported numbers originate from patent US20070185069A1.
